experiment: Chemical stability of the compound in buffer assessed as compound remaining at pH 4 after 2 hrs by HPLC analysis; type: physicochemical; conditions: read-out: Stability
READOUT KIND: remaining at 2 h

input: For CC(C)[C@]12O[C@H]1[C@@H]1O[C@]13[C@]1(O[C@H]1C[C@H]1C4=C(CC[C@@]13C)C(=O)OC4)[C@@H]2OCOP(=O)([O-])[O-].[Na+].[Na+] [MINNELIDE] , what is its reported remaining at 2 h?
output: 100%

---

test: Chemical stability of the compound in buffer assessed as compound remaining at pH 9 after 4 hrs by HPLC analysis; type: physicochemical; conditions: read-out: Stability
READOUT KIND: remaining at 4 h (%)
Provide the reading as a plain figure in %.

input: For CC(C)[C@]12O[C@H]1[C@@H]1O[C@]13[C@]1(O[C@H]1C[C@H]1C4=C(CC[C@@]13C)C(=O)OC4)[C@@H]2OCOP(=O)([O-])[O-].[Na+].[Na+] [MINNELIDE] , what is its reported remaining at 4 h?
output: 100
